Assignment: determine reported Selectivity TH, absorbance (O.D.) at 405 nm for the given molecules.
Target: Thrombin (TH) (Bos taurus, UniProt P00735)
Sequence (P00735 44-625): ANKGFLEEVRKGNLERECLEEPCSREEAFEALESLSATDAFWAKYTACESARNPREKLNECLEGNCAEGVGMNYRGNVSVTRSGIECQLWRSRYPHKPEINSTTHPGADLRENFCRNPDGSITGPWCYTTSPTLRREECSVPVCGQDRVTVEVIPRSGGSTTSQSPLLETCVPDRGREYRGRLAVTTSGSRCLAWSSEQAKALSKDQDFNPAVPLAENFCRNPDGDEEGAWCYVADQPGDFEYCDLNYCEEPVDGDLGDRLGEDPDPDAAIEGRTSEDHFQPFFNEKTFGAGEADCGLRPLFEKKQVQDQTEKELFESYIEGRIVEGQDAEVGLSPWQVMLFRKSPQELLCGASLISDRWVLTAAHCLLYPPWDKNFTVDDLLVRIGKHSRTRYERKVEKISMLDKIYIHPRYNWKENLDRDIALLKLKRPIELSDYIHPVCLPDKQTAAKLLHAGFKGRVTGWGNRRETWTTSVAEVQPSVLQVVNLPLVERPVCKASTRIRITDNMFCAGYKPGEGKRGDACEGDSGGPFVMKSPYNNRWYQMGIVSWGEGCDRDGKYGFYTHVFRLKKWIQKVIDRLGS
Format: biochemical, Cow
Settings: TABLE 3, PNA substrates; So = 0.54 mmole/l; pH 8.4; 37° C., 10 minutes; 1.0 NIH/ml
Where a SMILES comes first, the peptide text is derived from it. [ ]: non-standard residue; d: D form. The star is where a group is joined. pNA = O=[N+]([O-])c1ccc(N*)cc1; Tos = Cc1ccc(S(=O)(=O)*)cc1
Answers are plain numbers, in O.D..

Hi, could you look up Selectivity TH, absorbance (O.D.) at 405 nm for each item in my list?
1. Cc1ccc(CCOC(=O)CC[C@@H](N)C(=O)N[C@@H](Cc2ccccc2)C(=O)N[C@@H](CCCCN)C(=O)Nc2ccc([N+](=O)[O-])cc2)cc1
2. NCCCC[C@H](NC(=O)[C@H](Cc1ccccc1)NC(=O)[C@H](N)CCC(=O)OC1CCCCC1)C(=O)Nc1ccc([N+](=O)[O-])cc1 [NPN-3, HD-Glu(CHN)PheLysPNA.2HBr] (HELM PEPTIDE1{[dE].F.K.[O=[N+]([O-])c1ccc(N[*:1])cc1]}|CHEM1{[C1CCC(O[*:1])CC1]}$PEPTIDE1,CHEM1,1:R3-1:R1$$$V2.0)

A)
1: 0; 2: 0

Below is a list of molecules. For each, state its recorded Selectivity TH, absorbance (O.D.) at 405 nm.
1. Cc1ccc(S(=O)(=O)NCCCC[C@@H](N)C(=O)N[C@@H](Cc2ccccc2)C(=O)N[C@@H](CCCCN)C(=O)Nc2ccc([N+](=O)[O-])cc2)cc1 [NPN-2, H-D-Lys(ToS)-Phe-Lys PNA.2HBr] (H-[dK](Tos)-Phe-Lys-pNA)
2. Cc1ccc(C(=O)NCCCC[C@@H](N)C(=O)N[C@@H](Cc2ccccc2)C(=O)N[C@@H](CCCCN)C(=O)Nc2ccc([N+](=O)[O-])cc2)cc1
3. Cc1ccc(CCNC(=O)CC[C@@H](N)C(=O)N[C@@H](Cc2ccccc2)C(=O)N[C@@H](CCCCN)C(=O)Nc2ccc([N+](=O)[O-])cc2)cc1

A)
1: 0; 2: 0.001; 3: 0.001

----------
Target: UniProt P06867
Format: biochemical, Pig
Conditions: TABLE 3, PNA substrates; So = 0.54 mmole/l; pH 7.4; 37° C., 10 minutes; 0.32 CU/ml
Where a SMILES comes first, the peptide text is derived from it.
parameter_measured: Selectivity PL, absorbance (O.D.) at 405 nm

{"compound": "NCCCC[C@H](NC(=O)[C@H](Cc1ccccc1)NC(=O)[C@H](N)CCC(=O)OCCc1ccccc1)C(=O)Nc1ccc([N+](=O)[O-])cc1 [NPN-8]", "assay_result": "0.181 O.D."}
{"compound": "Cc1ccc(C(=O)NCCCC[C@@H](N)C(=O)N[C@@H](Cc2ccccc2)C(=O)N[C@@H](CCCCN)C(=O)Nc2ccc([N+](=O)[O-])cc2)cc1 [NPN-10]", "assay_result": "0.335 O.D."}
{"compound": "CC(C)C[C@H](NC(=O)[C@H](N)C(C)C)C(=O)N[C@@H](CCCCN)C(=O)Nc1ccc([N+](=O)[O-])cc1 [S-2251, H-D-Val-Leu-Lys-PNA, reference compound] (HELM PEPTIDE1{[dV].L.K.[O=[N+]([O-])c1ccc(N[*:1])cc1]}$$$$V2.0)", "assay_result": "0.306 O.D."}

Now examine the next entry.
Q) Note down Selectivity PL, absorbance (O.D.) at 405 nm recorded for Cc1ccc(S(=O)(=O)NCC(=O)N2CCC[C@H]2C(=O)N[C@@H](CCCCN)C(=O)Nc2ccc([N+](=O)[O-])cc2)cc1 [CHR-PL, Tos-Gly-Pro-Lys-PNA, reference compound] (HELM PEPTIDE1{[Cc1ccc(S(=O)(=O)[*:2])cc1].G.P.K.[O=[N+]([O-])c1ccc(N[*:1])cc1]}$$$$V2.0)
A) 0.647 O.D.

----------
Please respond with reported Relative ratio for every item in the list.
Target: plasmin (pig) (Sus scrofa, UniProt P06867)
Sequence (P06867 97-809): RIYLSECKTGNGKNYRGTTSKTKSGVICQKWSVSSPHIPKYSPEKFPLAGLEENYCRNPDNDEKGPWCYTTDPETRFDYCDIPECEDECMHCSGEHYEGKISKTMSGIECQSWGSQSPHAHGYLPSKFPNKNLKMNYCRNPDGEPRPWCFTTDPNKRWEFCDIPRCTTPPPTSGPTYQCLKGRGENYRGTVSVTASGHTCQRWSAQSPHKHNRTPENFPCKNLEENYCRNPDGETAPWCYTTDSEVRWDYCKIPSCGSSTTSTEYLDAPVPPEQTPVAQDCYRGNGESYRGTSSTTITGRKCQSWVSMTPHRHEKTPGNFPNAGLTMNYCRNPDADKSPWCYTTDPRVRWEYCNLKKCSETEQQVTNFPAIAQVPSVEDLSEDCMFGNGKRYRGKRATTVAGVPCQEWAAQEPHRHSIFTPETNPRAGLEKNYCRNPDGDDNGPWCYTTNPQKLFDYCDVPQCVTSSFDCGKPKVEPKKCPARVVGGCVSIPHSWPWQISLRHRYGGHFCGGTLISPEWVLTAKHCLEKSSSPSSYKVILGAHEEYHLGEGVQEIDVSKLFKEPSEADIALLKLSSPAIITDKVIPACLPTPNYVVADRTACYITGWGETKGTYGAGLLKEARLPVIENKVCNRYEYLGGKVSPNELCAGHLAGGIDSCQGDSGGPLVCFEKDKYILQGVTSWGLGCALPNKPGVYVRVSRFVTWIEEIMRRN
Test: Km, Vmax and Vmax/Km of substrates for plasmin (pig)
Format: biochemical, Porcine (pig)
Conditions: TABLE 1; V/Km of each sample divided by that of S2251
Where a SMILES comes first, the peptide text is derived from it. [ ]: non-standard residue; d: D form. The star is where a group is joined. pNA = O=[N+]([O-])c1ccc(N*)cc1; Tos = Cc1ccc(S(=O)(=O)*)cc1
Numbers only.

Consider the reported Relative ratio for these compounds:
{"compound": "NCCCC[C@H](NC(=O)[C@H](Cc1ccccc1)NC(=O)[C@H](N)CCC(=O)OCCc1ccccc1)C(=O)Nc1ccc([N+](=O)[O-])cc1", "target_or_system": "plasmin (pig) (Sus scrofa, UniProt P06867)", "assay_result": 8.019}
{"compound": "Cc1ccc(S(=O)(=O)NCCCC[C@@H](N)C(=O)N[C@@H](CC(C)C)C(=O)N[C@@H](CCCCN)C(=O)Nc2ccc([N+](=O)[O-])cc2)cc1 [NPN-1, HD-Lys(Tos)LeuLysPNA.2HBr] (H-[dK](Tos)-Leu-Lys-pNA)", "target_or_system": "plasmin (pig) (Sus scrofa, UniProt P06867)", "assay_result": 2.937}
{"compound": "Cc1ccc(C(=O)NCCCC[C@@H](N)C(=O)N[C@@H](Cc2ccccc2)C(=O)N[C@@H](CCCCN)C(=O)Nc2ccc([N+](=O)[O-])cc2)cc1", "target_or_system": "plasmin (pig) (Sus scrofa, UniProt P06867)", "assay_result": 14.764}
{"compound": "Cc1ccc(CCOC(=O)CC[C@@H](N)C(=O)N[C@@H](Cc2ccccc2)C(=O)N[C@@H](CCCCN)C(=O)Nc2ccc([N+](=O)[O-])cc2)cc1", "target_or_system": "plasmin (pig) (Sus scrofa, UniProt P06867)", "assay_result": 6.171}
{"compound": "NCCCC[C@H](NC(=O)[C@H](Cc1ccccc1)NC(=O)[C@H](N)CCC(=O)NCCCc1ccccc1)C(=O)Nc1ccc([N+](=O)[O-])cc1", "target_or_system": "plasmin (pig) (Sus scrofa, UniProt P06867)", "assay_result": 5.534}

Now examine the next entry.
Q) Specify Relative ratio for NCCCC[C@H](NC(=O)[C@H](Cc1ccccc1)NC(=O)[C@H](N)CCC(=O)OC1CCCCC1)C(=O)Nc1ccc([N+](=O)[O-])cc1 [NPN-3, HD-Glu(CHN)PheLysPNA.2HBr] (HELM PEPTIDE1{[dE].F.K.[O=[N+]([O-])c1ccc(N[*:1])cc1]}|CHEM1{[C1CCC(O[*:1])CC1]}$PEPTIDE1,CHEM1,1:R3-1:R1$$$V2.0) and stop.
A) 17.726

----------
Target: Kallikrein (KL) (Sus scrofa, UniProt P00752)
Sequence (P00752 8-246): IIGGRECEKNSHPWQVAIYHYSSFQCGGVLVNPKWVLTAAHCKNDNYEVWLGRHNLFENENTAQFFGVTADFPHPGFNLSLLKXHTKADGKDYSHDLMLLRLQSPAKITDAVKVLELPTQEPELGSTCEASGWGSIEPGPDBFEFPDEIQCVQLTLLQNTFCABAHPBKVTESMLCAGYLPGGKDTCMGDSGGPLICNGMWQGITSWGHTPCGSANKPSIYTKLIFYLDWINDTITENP
Assay type: biochemical, Pig
Conditions: TABLE 3, PNA substrates; So = 0.54 mmole/l; pH 7.9; 37° C., 10 minutes; 1.0 BAEE-U/ml
Where a SMILES comes first, the peptide text is derived from it. [ ]: non-standard residue; d: D form. The star is where a group is joined. pNA = O=[N+]([O-])c1ccc(N*)cc1; Tos = Cc1ccc(S(=O)(=O)*)cc1
Answer each item with its documented Selectivity KL, absorbance (O.D.) at 405 nm.
Numbers only, in O.D..

Known Selectivity KL, absorbance (O.D.) at 405 nm results, listed for orientation:
{"compound": "Cc1ccc(S(=O)(=O)NCCCC[C@@H](N)C(=O)N[C@@H](CC(C)C)C(=O)N[C@@H](CCCCN)C(=O)Nc2ccc([N+](=O)[O-])cc2)cc1 [NPN-1, HD-Lys(Tos)LeuLysPNA.2HBr] (H-[dK](Tos)-Leu-Lys-pNA)", "output_unit": "O.D.", "assay_result": 0.006}
{"compound": "CC(C)C[C@H](NC(=O)[C@H](N)C(C)C)C(=O)N[C@@H](CCCCN)C(=O)Nc1ccc([N+](=O)[O-])cc1 [S-2251, H-D-Val-Leu-Lys-PNA, reference compound] (HELM PEPTIDE1{[dV].L.K.[O=[N+]([O-])c1ccc(N[*:1])cc1]}$$$$V2.0)", "output_unit": "O.D.", "assay_result": 0.017}

Next compound, please.
Q) Read off the recorded Selectivity KL, absorbance (O.D.) at 405 nm for NCCCC[C@H](NC(=O)[C@H](Cc1ccccc1)NC(=O)[C@H](N)CCC(=O)OC1CCCCC1)C(=O)Nc1ccc([N+](=O)[O-])cc1 [NPN-3, HD-Glu(CHN)PheLysPNA.2HBr] (HELM PEPTIDE1{[dE].F.K.[O=[N+]([O-])c1ccc(N[*:1])cc1]}|CHEM1{[C1CCC(O[*:1])CC1]}$PEPTIDE1,CHEM1,1:R3-1:R1$$$V2.0)
A) 0.009
